These entries and their values trace back to the nanobody polyreactivity screen of Harvey et al. (2022).

experiment: yeast display, Sf9 membrane polyspecificity reagent, FACS + sequencing; frameworks hold sequencing errors

biopolymerSequence: QVQLVESGGGLVQAGGSLRLSCAASGRTFYYYAMGWYRQAPGKERELVAGINSGGSTNYADSVKGRFTISRDNAKNTVYLQMNSLKPEDTAVYYCAVEDLVSEGWGWYKEMDYWGQGTQVTVSS
polyreactivity (PSR sort gate): low polyreactivity
--
biopolymerSequence: QVQLVESGGGLVQAGGSLRLSCAASGSIFPTYALGWYRQAPGKERELVAAISSIVGGTYYADSVKGRFTISRDNAKNTVYLQMNSLKPEDTAVYYCNKTKFQGYDYWGQGTQVTVSS
polyreactivity (PSR sort gate): low polyreactivity
